growth listing for selected molecules.
# System: NCI-H322M lung
# Measurement description: NCI-60 one-dose screen, 48 h (100 = growth as untreated, 0 = no growth, -100 = all killed)
# Run conditions: 10 µM unless noted
About 83,000 compounds went through this panel and 20% of them were active in at least one assay; those are over-represented in the sample as a whole.
Your answer is read as %, so omit the unit and give the number.

Example cases with answers are listed next.
COc1ccc(/C=C/C(=O)c2nnn(-c3ccc(C(=O)O)cc3)c2C)cc1OC: 91.3
CCC(=O)Nc1cc(Nc2cc(NC3CC3)n3ncc(C#N)c3n2)ccc1C: 19.4
COC(=O)[C@@]1(C)CC[C@]2(C)CC[C@]3(C)C(=CC(=O)[C@@H]4[C@@]5(C)Cc6c(n(CC#CCN7CCN(C)CC7)c7ccccc67)C(C)(C)[C@@H]5CC[C@]43C)[C@@H]2C1: 91.5

Asked: Reported growth for `Clc1ccc(-c2csc(Nc3cccc(Nc4csc(-c5ccc(Cl)cc5)n4)c3)n2)cc1` : what is it?
Given back: 68.9

Asked: Reported growth for CCCCCCCCCC[C@@H](C)[C@@H]1CC(=O)N[C@H]([C@@H](C)O)C(=O)N[C@@H](C)C(=O)N[C@H](C)C(=O)N[C@@H](CCC(N)=O)C(=O)N[C@H](Cc2ccc(O)cc2)C(=O)N[C@@H](C(C)CC)C(=O)O1 (stereo partly drawn) : what is it?
Given back: 89.1

Asked: Reported growth for `O=C1[C@@H]2Cc3c([nH]c4ccccc34)[C@H](c3c(Cl)cccc3Cl)N2C(=O)CN1C1CCN(Cc2c(F)cccc2F)CC1` : what is it?
Given back: 89.1

Asked: Reported growth for `NS(=O)(=O)Oc1ccc2nc(Nc3ccc(F)c(F)c3)ccc2c1` : what is it?
Given back: 92.9

Asked: Reported growth for `Cc1cc2nc(C(Cl)Cl)nc(-c3ccco3)n2n1` : what is it?
Given back: 23.3
